target: Glycogen synthase kinase-3 beta (Homo sapiens); test: Inhibition of human recombinant GSK-3beta using prephosphorylated polypeptide as substrate incubated for 30 mins in presence of ATP by Kinase-Glo luminescence assay relative to control
Sequence (P49841 whole entry, looked up): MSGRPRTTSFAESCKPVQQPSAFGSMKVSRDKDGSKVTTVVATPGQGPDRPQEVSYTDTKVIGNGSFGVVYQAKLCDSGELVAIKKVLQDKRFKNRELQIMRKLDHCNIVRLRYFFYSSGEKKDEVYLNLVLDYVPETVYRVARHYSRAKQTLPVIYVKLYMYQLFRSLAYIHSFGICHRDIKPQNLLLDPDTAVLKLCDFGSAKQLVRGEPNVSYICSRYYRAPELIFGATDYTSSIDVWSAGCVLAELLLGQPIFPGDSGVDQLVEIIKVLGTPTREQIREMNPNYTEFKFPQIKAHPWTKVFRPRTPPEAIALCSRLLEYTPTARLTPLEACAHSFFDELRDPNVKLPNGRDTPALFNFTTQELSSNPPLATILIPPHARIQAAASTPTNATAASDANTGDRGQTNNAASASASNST
Here the recorded inhibition is given for each entry.
outcome_measure: inhibition

- Cn1c(NCCNc2c3c(nc4ccc(C(C)(F)F)cc24)CCCC3)nc(-c2ccncc2)cc1=O: < 50%
- Cn1c(NCCNc2c3c(nc4ccc(Br)cc24)CCCC3)nc(-c2ccncc2)cc1=O: < 50%
- Cc1ccc2c(NCCNc3nc(-c4ccncc4)cc(=O)n3C)c3c(nc2c1)CCCC3: < 50%
- Cn1c(NCCCNc2c3c(nc4ccccc24)CCCC3)nc(-c2ccncc2)cc1=O: < 50%
- Cn1c(NCCCCCCNc2c3c(nc4cc(Br)ccc24)CCCC3)nc(-c2ccncc2)cc1=O: < 60%
- Cn1c(NCCNc2c3c(nc4ccc(F)cc24)CCCC3)nc(-c2ccncc2)cc1=O: < 50%
- Cn1c(NCCCCCCCNc2c3c(nc4cc(Cl)ccc24)CCCC3)nc(-c2ccncc2)cc1=O: < 60%
- COc1ccc2c(NCCNc3nc(-c4ccncc4)cc(=O)n3C)c3c(nc2c1)CCCC3: < 50%

====

experiment: Drug concentration in ICR mouse brain at 15 mg/kg, ip measured after 0.5 hrs by UPLC-MS/MS analysis; assay type: ADME, organism-based; details: read-out: Drug uptake
outcome_measure: concentration at 0.5 h (ng/g)

- Cn1c(NCCCCCCCNc2c3c(nc4cc(Cl)ccc24)CCCC3)nc(-c2ccncc2F)cc1=O: 23.6

====

assay: Drug concentration in ICR mouse brain at 15 mg/kg, ip measured after 2 hrs by UPLC-MS/MS analysis; type: ADME, organism-based; conditions: read-out: Drug uptake
outcome_measure: concentration at 2 h (ng/g)

• Cn1c(NCCCCCCCNc2c3c(nc4cc(Cl)ccc24)CCCC3)nc(-c2ccncc2F)cc1=O = 12.2

====

assay: Drug concentration in ICR mouse plasma at 15 mg/kg, ip measured after 2 hrs by UPLC-MS/MS analysis; format: ADME, organism-based
outcome_measure: concentration at 2 h (ng/mL)

- Cn1c(NCCCCCCCNc2c3c(nc4cc(Cl)ccc24)CCCC3)nc(-c2ccncc2F)cc1=O: 26.8

====

assay: Apparent oral clearance in ICR mouse at 5 mg/kg measured upto 24 hrs by UPLC-MS/MS analysis; assay type: ADME, organism-based; conditions: in vivo
outcome_measure: CL/F (mL/h/kg)

* Cn1c(NCCCCCCCNc2c3c(nc4cc(Cl)ccc24)CCCC3)nc(-c2ccncc2F)cc1=O | 3.08

====

Target: Acetylcholinesterase (Mus musculus, UniProt P21836)
Sequence (P21836 whole entry): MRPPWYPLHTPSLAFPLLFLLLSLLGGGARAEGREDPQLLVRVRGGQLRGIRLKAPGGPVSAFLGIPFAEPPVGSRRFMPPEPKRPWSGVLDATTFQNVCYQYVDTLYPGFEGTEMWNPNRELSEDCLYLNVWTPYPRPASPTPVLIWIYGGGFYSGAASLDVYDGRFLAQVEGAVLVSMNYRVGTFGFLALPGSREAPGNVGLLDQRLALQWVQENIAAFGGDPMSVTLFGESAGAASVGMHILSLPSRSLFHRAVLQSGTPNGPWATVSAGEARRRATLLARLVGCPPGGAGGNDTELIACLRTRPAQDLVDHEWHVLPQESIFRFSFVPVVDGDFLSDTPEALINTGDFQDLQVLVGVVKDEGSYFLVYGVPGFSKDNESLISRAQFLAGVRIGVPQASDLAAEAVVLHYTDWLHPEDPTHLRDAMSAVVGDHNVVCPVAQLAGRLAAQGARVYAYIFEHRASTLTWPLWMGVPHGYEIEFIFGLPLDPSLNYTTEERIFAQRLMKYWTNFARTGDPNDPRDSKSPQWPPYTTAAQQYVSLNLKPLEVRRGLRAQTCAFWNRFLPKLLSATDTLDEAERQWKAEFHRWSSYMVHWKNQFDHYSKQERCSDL
pIC50: −log10 of the molar value.
outcome_measure: pIC50

* Cn1c(NCCCCCCCNc2c3c(nc4cc(F)ccc24)CCCC3)nc(-c2ccncc2)cc1=O | 3.91
* Cn1c(NCCCCCCCNc2c3c(nc4ccccc24)CCCC3)nc(-c2ccncc2)cc1=O | 6.89
* Cn1c(NCCNc2c3c(nc4cc(Cl)ccc24)CCCC3)nc(-c2ccncc2F)cc1=O | 6.80

====

assay: Drug concentration in ICR mouse plasma at 15 mg/kg, ip measured after 1 hr by UPLC-MS/MS analysis; assay type: ADME, organism-based
outcome_measure: concentration at 1 h (ng/mL)

* Cn1c(NCCCCCCCNc2c3c(nc4cc(Cl)ccc24)CCCC3)nc(-c2ccncc2F)cc1=O | 76.8

====

assay: Cmax in ICR mouse at 15 mg/kg, ip measured upto 24 hrs by UPLC-MS/MS analysis; assay type: ADME, organism-based; parameters: route intraperitoneal, dose 15 mg/kg, time <=24; details: in vivo
outcome_measure: Cmax

* Cn1c(NCCCCCCCNc2c3c(nc4cc(Cl)ccc24)CCCC3)nc(-c2ccncc2F)cc1=O | 1870 ng/mL

====

Parameter log10 of IC50, tested on Acetylcholinesterase (Mus musculus), listed per item.
outcome_measure: log10 of IC50 (log10 of the value in µM)

* Cn1c(NCCNc2c3c(nc4cc(F)ccc24)CCCC3)nc(-c2ccncc2)cc1=O | 0.59
* Cn1c(NCCCCCCCNc2c3c(nc4ccc(F)cc24)CCCC3)nc(-c2ccncc2)cc1=O | 3.26
* Cc1ccc2c(NCCCCCCNc3nc(-c4ccncc4F)cc(=O)n3C)c3c(nc2c1)CCCC3 | 2.47
* Cc1ccc2c(NCCCCCCCNc3nc(-c4ccncc4F)cc(=O)n3C)c3c(nc2c1)CCCC3 | 2.24
* Cn1c(NCCCCCCCNc2c3c(nc4cc(Br)ccc24)CCCC3)nc(-c2ccncc2)cc1=O | 1.59
* Cc1ccc2c(NCCCCCCCNc3nc(-c4ccncc4)cc(=O)n3C)c3c(nc2c1)CCCC3 | 2.16
* Cc1ccc2nc3c(c(NCCNc4nc(-c5ccncc5)cc(=O)n4C)c2c1)CCCC3 | 1.30
* COc1ccc2c(NCCNc3nc(-c4ccncc4)cc(=O)n3C)c3c(nc2c1)CCCC3 | 0.92
* Cn1c(NCCCCCCNc2c3c(nc4cc(Br)ccc24)CCCC3)nc(-c2ccncc2F)cc1=O | 1.85
* Cn1c(NCCNc2c3c(nc4cc(F)ccc24)CCCC3)nc(-c2ccncn2)cc1=O | -0.74
* Cn1c(NCCCCCCCNc2c3c(nc4ccccc24)CCCC3)nc(-c2ccncc2F)cc1=O | 2.55
* Cn1c(NCCNc2c3c(nc4cc(Br)ccc24)CCCC3)nc(-c2ccncc2)cc1=O | -0.36
* Cn1c(NCCCCCCNc2c3c(nc4cc(Cl)ccc24)CCCC3)nc(-c2ccncc2)cc1=O | 1.72
* Cn1c(NCCCCCCCNc2c3c(nc4ccc(F)cc24)CCCC3)nc(-c2ccncc2F)cc1=O | 3.38
* COc1ccc2c(NCCNc3nc(-c4ccncc4F)cc(=O)n3C)c3c(nc2c1)CCCC3 | 1.00
* Cn1c(NCCCCCCNc2c3c(nc4ccccc24)CCCC3)nc(-c2ccncc2F)cc1=O | 2.80
* Cn1c(NCCCCCCCNc2c3c(nc4cc(F)ccc24)CCCC3)nc(-c2ccncc2F)cc1=O | 2.13
* Cn1c(NCCCCCNc2c3c(nc4ccccc24)CCCC3)nc(-c2ccncc2)cc1=O | -0.40
* Cn1c(NCCCCNc2c3c(nc4ccccc24)CCCC3)nc(-c2ccncc2)cc1=O | 0.15

====

assay: Half life in ICR mouse at 5 mg/kg, iv measured upto 24 hrs by UPLC-MS/MS analysis; format: ADME, organism-based; conditions: in vivo
outcome_measure: half-life (h)

• Cn1c(NCCCCCCCNc2c3c(nc4cc(Cl)ccc24)CCCC3)nc(-c2ccncc2F)cc1=O = 3.65

====

molecular target: Acetylcholinesterase (Mus musculus, UniProt P21836)
pIC50: −log10 of the molar value.
# cutoff 4 applies to pIC50; >= gives Met, < gives Not met

* Cn1c(NCCCCCCNc2c3c(nc4cc(F)ccc24)CCCC3)nc(-c2ccncc2)cc1=O | Not met
* Cn1c(NCCCCCCNc2c3c(nc4cc(Cl)ccc24)CCCC3)nc(-c2ccncc2F)cc1=O | Met
* Cn1c(NCCNc2c3c(nc4ccccc24)CCCC3)nc(-c2ccncc2)cc1=O | Met
* Cn1c(NCCNc2c3c(nc4ccc(F)cc24)CCCC3)nc(-c2ccncc2)cc1=O | Met
* Cn1c(NCCNc2c3c(nc4cc(F)ccc24)CCCC3)nc(-c2ccncc2F)cc1=O | Met
* COc1ccc2nc3c(c(NCCNc4nc(-c5ccncc5)cc(=O)n4C)c2c1)CCCC3 | Met
* Cc1ccc2c(NCCNc3nc(-c4ccncc4)cc(=O)n3C)c3c(nc2c1)CCCC3 | Met
* Cn1c(NCCNc2c3c(nc4ccccc24)CCCC3)nc(-c2ccncc2F)cc1=O | Met
* Cn1c(NCCCCCCNc2c3c(nc4ccc(F)cc24)CCCC3)nc(-c2ccncc2)cc1=O | Not met
* Cn1c(NCCNc2c3c(nc4ccc(Cl)cc24)CCCC3)nc(-c2ccncc2)cc1=O | Met
* Cn1c(NCCCCCCNc2c3c(nc4cc(F)ccc24)CCCC3)nc(-c2ccncc2F)cc1=O | Not met
* Cn1c(NCCCCCCCNc2c3c(nc4cc(Cl)ccc24)CCCC3)nc(-c2ccncc2F)cc1=O | Met
* Cn1c(NCCNc2c3c(nc4ccc(Cl)cc24)CCCC3)nc(-c2ccncc2F)cc1=O | Met
* Cn1c(NCCCCCCCNc2c3c(nc4cc(Br)ccc24)CCCC3)nc(-c2ccncc2F)cc1=O | Met
* Cn1c(NCCCCCCNc2c3c(nc4ccc(F)cc24)CCCC3)nc(-c2ccncc2F)cc1=O | Not met
* COc1ccc2c(NCCNc3nc(-c4ccncn4)cc(=O)n3C)c3c(nc2c1)CCCC3 | Met
* Cn1c(NCCCNc2c3c(nc4ccccc24)CCCC3)nc(-c2ccncc2)cc1=O | Met
* Cn1c(NCCCCCCNc2c3c(nc4ccccc24)CCCC3)nc(-c2ccncc2)cc1=O | Met
